Molecular target: T1, human LAG3 expressed on cells (human, UniProt P18627 23-525)
T1 sequence (looked up): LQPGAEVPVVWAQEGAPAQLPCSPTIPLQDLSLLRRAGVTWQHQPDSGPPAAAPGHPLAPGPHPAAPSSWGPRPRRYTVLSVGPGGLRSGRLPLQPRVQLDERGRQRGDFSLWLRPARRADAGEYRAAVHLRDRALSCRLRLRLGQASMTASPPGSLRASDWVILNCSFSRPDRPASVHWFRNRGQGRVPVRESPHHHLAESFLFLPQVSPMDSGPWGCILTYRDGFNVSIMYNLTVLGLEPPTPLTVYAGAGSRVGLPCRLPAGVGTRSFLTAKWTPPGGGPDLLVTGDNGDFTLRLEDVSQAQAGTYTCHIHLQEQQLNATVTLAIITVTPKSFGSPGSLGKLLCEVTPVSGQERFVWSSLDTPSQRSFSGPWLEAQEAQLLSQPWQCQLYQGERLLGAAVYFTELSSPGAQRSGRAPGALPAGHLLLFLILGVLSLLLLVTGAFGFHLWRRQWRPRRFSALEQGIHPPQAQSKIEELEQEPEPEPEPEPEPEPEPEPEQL
Assay: cell-based or functional assay
Observation type: IL-2, % of BMS, at 0.137174211 ug/mL (%)
// return numeric value only (unit: %, not printed)

sdAb No. 25 (VHH, Fc of the tested form not described; also called sdAb 25; sdAb #25; not shown: Fc part implied by anti-human Fc capture and anti-human IgG Fc detection) VHH: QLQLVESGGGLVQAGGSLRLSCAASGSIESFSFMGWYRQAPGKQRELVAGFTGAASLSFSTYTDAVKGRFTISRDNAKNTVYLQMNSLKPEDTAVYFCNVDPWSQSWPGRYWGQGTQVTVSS
2.39
sdAb No. 73 (VHH, Fc not described; also called sdAb 73; not shown: Fc part implied by anti-human Fc capture) VHH: QVQLVESGGGLVQPGGSLKLSCTASGFTLDYYAIAWFRQAPGKEREAVSCISSSDGSTRYADSVKGRFTISRDNAKNTVYLQMNSLKPEDTAVYYCAADPYGDCRGPYDYWGQGTQVTVSS
6.64
sdAb No. 24 (VHH, Fc of the tested form not described; also called sdAb 24; not shown: Fc part implied by anti-human Fc capture) VHH: QLQLVESGGGLVQPGGSLRLSCAASGFTLNEHAIGWFRQAPGKEREGVSCISSSDGSTYYHDSVKGRFTMSRDDAKNTVYLQMNSLKAEDTAIYYCAAALGRDCQGGQWKTSSWGQGTQVTVSS
10.8
sdAb No. 1 (VHH, the tested form was captured by anti-human Fc, its Fc is not described; also called sdAb 1; not shown: Fc part implied by anti-human Fc capture) VHH: QLQLVESGGGLVQAGGSLRLSCAASGFTFDDYAIGWFRQAPGKEREGVSCIRSSDGSTYYADSVKGRFTISSDNAKNTVYLQMNSLKPEDTAVYYCAKDNYSDCRGPYHYWGQGTQVTVSS
14.2
sdAb No. 27 (VHH, Fc of the tested form not described; also called sdAb 27; not shown: Fc part implied by anti-human Fc capture and anti-human IgG Fc detection) VHH: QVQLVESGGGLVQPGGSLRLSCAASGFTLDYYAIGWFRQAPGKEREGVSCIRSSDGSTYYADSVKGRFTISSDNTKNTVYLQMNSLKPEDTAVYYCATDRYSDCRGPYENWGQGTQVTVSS
18

Then there is this binder:
Lookup: Find the measured IL-2, % of BMS, at 0.137174211 ug/mL of sdAb No. 17 (VHH, Fc of the tested form not described; also called sdAb 17; not shown: Fc part implied by anti-human Fc capture and anti-human IgG1 Fc detection) VHH: QLQLVESGGGLVQPGGSLRLSCAASGLTLDGYAIGWFRQAPGKEREGLACISGSDGSTHYLDSVKGRFTISRDNGKNTMALQMNSLQFGDTAIYYCAARRGSCSGSWTYWGQGTQVTVSS and report it.
Found: 18
